- measured_target: Hypoxia-inducible factor 1-alpha (Homo sapiens) (UniProt Q16665)
- Sequence (Q16665 whole entry, looked up): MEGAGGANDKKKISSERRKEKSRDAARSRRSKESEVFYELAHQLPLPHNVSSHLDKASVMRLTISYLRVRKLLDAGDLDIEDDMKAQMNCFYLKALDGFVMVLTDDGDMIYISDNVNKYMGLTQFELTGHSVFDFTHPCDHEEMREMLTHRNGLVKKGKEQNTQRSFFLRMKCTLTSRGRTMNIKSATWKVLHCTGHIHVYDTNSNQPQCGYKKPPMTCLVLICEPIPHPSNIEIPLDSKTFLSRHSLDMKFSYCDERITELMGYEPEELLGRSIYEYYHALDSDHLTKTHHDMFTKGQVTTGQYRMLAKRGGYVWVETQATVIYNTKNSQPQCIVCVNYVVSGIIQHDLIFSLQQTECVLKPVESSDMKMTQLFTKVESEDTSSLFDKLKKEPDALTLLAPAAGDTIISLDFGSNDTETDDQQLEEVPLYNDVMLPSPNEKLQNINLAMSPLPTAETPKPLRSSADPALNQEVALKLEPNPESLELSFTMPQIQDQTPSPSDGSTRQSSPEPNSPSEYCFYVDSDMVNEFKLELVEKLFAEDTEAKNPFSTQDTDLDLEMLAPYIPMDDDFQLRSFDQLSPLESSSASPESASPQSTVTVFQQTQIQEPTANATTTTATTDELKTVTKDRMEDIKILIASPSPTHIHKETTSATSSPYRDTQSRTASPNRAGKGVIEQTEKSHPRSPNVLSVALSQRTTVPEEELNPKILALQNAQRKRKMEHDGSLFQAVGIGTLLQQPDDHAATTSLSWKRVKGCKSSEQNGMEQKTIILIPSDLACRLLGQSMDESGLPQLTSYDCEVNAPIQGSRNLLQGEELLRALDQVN
- protocol: Inhibition of HIF1alpha transcriptional activity in hypoxia-induced human HCCLM3 cells co-transfected with luciferase reporter plasmid containing five copies of HREs and pRL-SV40 plasmid encoding Renilla luciferase at 10 uM incubated with compound under normoxia for 1 hr followed by hypoxia induction and measured after 24 hrs by HRE-dependent dual luciferase reporter gene assay relative to control
measurement_label: inhibition (%)

O=C(NCCc1ccncc1)c1noc(-c2ccccc2)n1; 49.7
Cc1ccc(C(=O)NCCc2ccncc2)cc1; 3.1
Cc1nc(C(=O)NCCc2ccc(Cl)cc2)cs1; 0.6

P = O=C(NCCc1ccccc1Cl)c1coc(-c2ccccc2)n1
Q = Cc1ccc(C(=O)NCCc2ccccc2Cl)o1
Problem: Please indicate which item has the smaller measured inhibition: P versus Q // caller expects the label of the chosen entry
Result: Q

P = COC(=O)c1ccc(O)c(NC(=O)COc2ccc(C34CC5CC(CC(C5)C3)C4)cc2)c1
Q = O=C(NCCc1ccccc1Cl)c1nc(-c2ccccc2)no1
Problem: Which value of inhibition is greater, the one for P or the one for Q ? // caller expects the label of the chosen entry
Result: P

I = O=C(NCCc1ccncc1)c1csc(-c2cccnc2)n1
II = Cc1nc(C(=O)NCc2ccccc2)cs1
III = O=C(NCCc1ccncc1)c1ccc(-c2ccccc2)cn1
Problem: Exam item: list the entries in increasing order of inhibition. Provide the labels, sequenced as the question asks.
Result: II, I, III
